- Assayed System: Itk (Homo sapiens)
- Sequence (Q08881 whole entry, species assumed): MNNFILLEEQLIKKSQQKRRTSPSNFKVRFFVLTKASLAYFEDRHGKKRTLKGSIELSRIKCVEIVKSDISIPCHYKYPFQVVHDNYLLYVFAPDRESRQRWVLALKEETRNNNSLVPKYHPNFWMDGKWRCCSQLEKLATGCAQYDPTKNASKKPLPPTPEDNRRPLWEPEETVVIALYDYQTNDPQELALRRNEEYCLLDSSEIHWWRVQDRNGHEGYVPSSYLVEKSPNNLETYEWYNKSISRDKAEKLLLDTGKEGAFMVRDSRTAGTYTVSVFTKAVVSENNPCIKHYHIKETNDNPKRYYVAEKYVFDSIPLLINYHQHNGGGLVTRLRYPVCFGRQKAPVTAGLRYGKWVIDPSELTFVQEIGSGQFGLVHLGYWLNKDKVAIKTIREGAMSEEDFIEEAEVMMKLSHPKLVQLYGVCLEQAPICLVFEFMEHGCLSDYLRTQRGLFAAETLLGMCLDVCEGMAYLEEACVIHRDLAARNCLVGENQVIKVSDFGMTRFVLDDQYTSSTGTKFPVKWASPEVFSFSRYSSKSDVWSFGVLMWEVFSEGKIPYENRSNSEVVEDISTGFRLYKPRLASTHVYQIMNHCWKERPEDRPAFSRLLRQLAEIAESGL
- Assay Notes: ITK inhibition assay, radioactive-phosphate incorporation
- Format: biochemical
- Measurement Setup: [γ-33P]ATP, SAM68 peptide, 25° C.
Property: Ki

Observe how each entry below is paired with its result.
- Compound: "C[C@H](CN)Nc1cccc(-c2c[nH]c(=O)c(NC(=O)c3ccc(N4CCCCC4)cc3)c2)n1"
  Result Value: "< 100 nM"
- Compound: "O=C(Nc1ccc(N2CCOCC2)cc1)c1cc(-c2ccncc2)c[nH]c1=O"
  Result Value: "< 100 nM"
- Compound: "CNCCNc1cccc(-c2c[nH]c(=O)c(NC(=O)c3ccc(N4CCCCC4)cc3)c2)n1 [II-51]"
  Result Value: "< 100 nM"
- Compound: "O=C(Nc1cc(-c2ccncc2)c[nH]c1=O)c1ccc(N2CCC(N3CCCC3)CC2)cc1"
  Result Value: "100 to 1000 nM"
- Compound: "CNc1nccc(-c2c[nH]c(=O)c(NC(=O)c3ccc(Cc4ccccc4)cc3)c2)n1"
  Result Value: "100 to 1000 nM"
- Compound: "CC(C)(C)C(CO)Nc1cccc(-c2c[nH]c(=O)c(NC(=O)c3ccc(N4CCCCC4)cc3)c2)n1 (stereo not drawn)"
  Result Value: "100 to 1000 nM"

Prompt line: Entry under review: `CNC(=O)c1cccc(-c2c[nH]c(=O)c(NC(=O)c3ccc(N4CCCCC4)cc3)c2)n1` . Reported Ki?
Response line: 100 to 1000 nM

Prompt line: Requested read-out: Ki. Entry: `CNc1nccc(-c2c[nH]c(=O)c(NC(=O)c3ccc(N4CCN(CCCOC)CC4)cc3)c2)n1`
Response line: < 100 nM

Prompt line: Any idea what Ki was measured for `CNc1cncc(-c2c[nH]c(=O)c(NC(=O)c3ccc(OCCC4CCNCC4)cc3)c2)n1` ?
Response line: < 100 nM

# credit: patent US8338597B2
